Tested on: human PBMCs
assay_explanation: Human PBMC cytokine response assay (IFN-γ and IFN-α in cell-free medium by ELISA), with or without cPLGA
Format: cell-based
assay_setup: Example 58; 4 ug/ml; mean of four individuals
Please respond with reported IFN-α mean for every item in the list.
Numbers only; they are read as pg/mL.

Exam item: Tell me IFN-α mean reported for (5′-TCGAACGTTCGA-3′ (SEQ ID NO: 155)-HEG)3-trebler-HEG-5′-T-3′ (three copies HEG-trebler branched, HEG-T, chemistry not fully specified) [Compound C-175]
Marked response: 4193

Exam item: Quote IFN-α mean reported for (5′-TAGTCAT-3′-HEG)2-glycerol-HEG-5′-AACCTTC-3′ [Compound M-3, reference compound] please.
Marked response: 52

Exam item: Dear colleague, please send me the reported IFN-α mean for (5′-TCGAACGTTCGA-3′ (SEQ ID NO: 155)-HEG)2-glycerol-HEG-5′-TCGAACGTTCGA-3′ (SEQ ID NO: 155) (three copies via HEG-glycerol branching, chemistry not fully specified) [Compound C-173] when you can.
Marked response: 3126

Exam item: Note IFN-α mean for the substance shown: (5′-TCGAACGTTCGA-3′ (SEQ ID NO: 155)-HEG)2-glycerol-HEG-3′-AGCTTGCAAGCT-5′ (SEQ ID NO: 155) (DNA, all phosphorothioate, methylation of C not given here; Three DNA copies joined by HEG spacers and glycerol branching, one copy inverted) [Compound C-174]
Marked response: 5089

* * *

Test system: human PBMCs
assay_explanation: Human PBMC cytokine response assay (IFN-γ and IFN-α in cell-free medium by ELISA), with or without cPLGA
Format: cell-based
assay_setup: donor 110; Table 14
Strand notation (5' to 3'): a small letter for the sugar, then the base; units joined by * are phosphorothioate-linked, units joined directly phosphodiester-linked; [ ] holds rarer units or linkages, { } end groups; capitals alone tell only the bases. d = 2'-deoxy (DNA)
experimental_endpoint: IFN-γ
Be sure to follow the number with its unit.

Exam item: System human PBMCs. Read-out IFN-γ. Item TMEA-(5′-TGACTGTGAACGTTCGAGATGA-3′)3 (SEQ ID NO: 139) (See Ex. 23) [Compound C-99] . Report value.
Marked response: 276 pg/mL

Exam item: Look up human PBMCs data: IFN-γ of 5′-TCGTCGA-3′-HEG-5′-ACGTTCG-3′-HEG-5′-AGATGAT-3′ [Compound C-8] , then report it.
Marked response: 1152 pg/mL

Exam item: State IFN-γ (human PBMCs) of 5′-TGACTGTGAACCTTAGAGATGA-3′ (SEQ ID NO: 3) (dT*dG*dA*dC*dT*dG*dT*dG*dA*dA*dC*dC*dT*dT*dA*dG*dA*dG*dA*dT*dG*dA) [Compound P-7, negative control, reference compound] .
Marked response: 124 pg/mL

Exam item: Answer with IFN-γ of (5′-TCGTCGA-3′)2-glycerol-5′-TCGTCGA-3′ [Compound C-28] measured for human PBMCs.
Marked response: 5564 pg/mL

Exam item: Given 5′-TCGTCGT-3′-HEG-5′-TCGTCGT-3′-HEG-5′-TCGTCGT-3′ [Compound C-42] , report its IFN-γ on human PBMCs.
Marked response: 1508 pg/mL

Exam item: Report value: IFN-γ, system: human PBMCs, substance: 5′-TCGTTTT-3′-HEG-5′-TCGTTTT-3′-HEG-5′-TCGTTTT-3′ [Compound C-41]
Marked response: 512 pg/mL

Exam item: Find IFN-γ for (5′-TCGTCGA-3′-HEG)2-glycerol-HEG-5′-TCGTCGA-3′ [Compound C-94] on human PBMCs and write it down.
Marked response: 5168 pg/mL

* * *

Record form. Attribute: IFN-α mean. Fill in for each entry.
System: human PBMCs
assay_explanation: Human PBMC cytokine response assay (IFN-γ and IFN-α in cell-free medium by ELISA), with or without cPLGA
Assay type: cell-based
assay_setup: Table 24; mean of donors 28234-28237
Provide only the numeric value, understood in pg/mL.

Exam item: With human PBMCs as the test system, provide measured IFN-α mean for this substance: (5′-TCGTCGA-3′-HEG)2-glycerol-HEG-5′-AACGTTC-3′-HEG-5′-TCGACGT-3′ [Compound C-100]
Marked response: 156

Exam item: Give human PBMCs IFN-α mean for the following substance: 5′-TCGTCGA-3′-C3-5′-TCGTCGA-3′-C3-5′-TCGTCGA-3′ [Compound C-90]
Marked response: 131

Exam item: GET IFN-α mean | system: human PBMCs | item: 5′-TCGACGT-3′-HEG-5′-TCGACGT-3′-HEG-5′-TCGACGT-3′ [Compound C-51]
Marked response: 1061

Exam item: Report measured IFN-α mean on human PBMCs; entry: 5′-TCGACGT-3′-HEG-5′-TCGACGT-3′-HEG-5′-TCGACGT-3′-HEG-5′-TCGACGT-3′ [Compound C-71]
Marked response: 563

* * *

System: human PBMCs
assay_explanation: Human PBMC cytokine response assay (IFN-γ and IFN-α in cell-free medium by ELISA), with or without cPLGA
Format: cell-based
assay_setup: donor 119; Table 14
Strand notation (5' to 3'): a small letter for the sugar, then the base; units joined by * are phosphorothioate-linked, units joined directly phosphodiester-linked; [ ] holds rarer units or linkages, { } end groups; capitals alone tell only the bases. d = 2'-deoxy (DNA)
experimental_endpoint: IFN-γ (pg/mL)
Reply numerically in pg/mL, unit not repeated.

Exam item: Annotate the substance 5′-TCGTCGA-3′-HEG-5′-ACGTTCG-3′-HEG-5′-AGATGAT-3′ [Compound C-8] with its measured IFN-γ.
Marked response: 136

Exam item: Specify measured IFN-γ for 5′-TCGTCGA-3′-HEG-5′-TCGTCGA-3′ [Compound C-39] .
Marked response: 108

Exam item: Tell me measured IFN-γ for 5′-TTCGTTT-3′-HEG-5′-TTCGTTT-3′-HEG-5′-TTCGTTT-3′ [Compound C-46] please.
Marked response: 68

Exam item: Report IFN-γ, nothing else, for this substance: 5′-TCGAGAT-3′-HEG-5′-TCGAGAT-3′-HEG-5′-TCGAGAT-3′ [Compound C-45]
Marked response: 52

Exam item: Identify measured IFN-γ corresponding to 5′-CGTTCGA-3′-HEG-5′-CGTTCGA-3′-HEG-5′-CGTTCGA-3′ [Compound C-52]
Marked response: 40

Exam item: Write down IFN-γ measured for item 5′-AGATGAT-3′-HEG-5′-TCGTCGA-3′-HEG-5′-ACGTTCG-3′ [Compound C-59]
Marked response: 28

Exam item: Consider the substance 5′-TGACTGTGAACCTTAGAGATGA-3′ (SEQ ID NO: 3) (dT*dG*dA*dC*dT*dG*dT*dG*dA*dA*dC*dC*dT*dT*dA*dG*dA*dG*dA*dT*dG*dA) [Compound P-7, negative control, reference compound] . State its measured IFN-γ.
Marked response: 16

Exam item: Please supply the value of reported IFN-γ for the item (5′-TCGTCGA-3′)2-glycerol-5′-TCGTCGA-3′ [Compound C-28]
Marked response: 44

* * *

System: human PBMCs
assay_explanation: Human PBMC cytokine response assay (IFN-γ and IFN-α in cell-free medium by ELISA), with or without cPLGA
Assay type: cell-based
assay_setup: Table 10; donor 28043
Strand notation (5' to 3'): a small letter for the sugar, then the base; units joined by * are phosphorothioate-linked, units joined directly phosphodiester-linked; [ ] holds rarer units or linkages, { } end groups; capitals alone tell only the bases. d = 2'-deoxy (DNA)
experimental_endpoint: IFN-γ
Please report the result as a number followed by the unit.

Exam item: Identify measured IFN-γ associated with 5′-TCGTTTT-3′-HEG-5′-TCGTTTT-3′-HEG-5′-TCGTTTT-3′ [Compound C-41]
Marked response: 1075 pg/mL

Exam item: Identify IFN-γ associated with the substance 5′-ACGTTCG-3′-HEG-5′-ACGTTCG-3′-HEG-5′-AGATGAT-3′ [Compound C-24]
Marked response: 156 pg/mL

Exam item: Give the value of IFN-γ reported for the following: 5′-TCGTCGT-3′-HEG-5′-TCGTCGT-3′-HEG-5′-TCGTCGT-3′ [Compound C-42]
Marked response: 1067 pg/mL

Exam item: Return IFN-γ (reported value) for this substance: 5′-TCGAGAT-3′-HEG-5′-TCGAGAT-3′-HEG-5′-TCGAGAT-3′ [Compound C-45]
Marked response: 1466 pg/mL

Exam item: Specify measured IFN-γ for 5′-TTCGTTT-3′-HEG-5′-TTCGTTT-3′-HEG-5′-TTCGTTT-3′ [Compound C-46] .
Marked response: 814 pg/mL

Exam item: Using the record for 5′-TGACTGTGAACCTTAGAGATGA-3′ (SEQ ID NO: 3) (dT*dG*dA*dC*dT*dG*dT*dG*dA*dA*dC*dC*dT*dT*dA*dG*dA*dG*dA*dT*dG*dA) [Compound P-7, negative control, reference compound] , state its measured IFN-γ.
Marked response: 76 pg/mL

Exam item: Name the recorded IFN-γ of the substance listed here: 5′-CGTTCGA-3′-HEG-5′-CGTTCGA-3′-HEG-5′-CGTTCGA-3′ [Compound C-52]
Marked response: 214 pg/mL
